Provenance of the data: the RNAGym collection of RNA variant scans (doi:10.1126/science.aae0568)

Below is a list of entries, each paired with its recorded yeast fitness value.
B1: tRNA (parent)
chain: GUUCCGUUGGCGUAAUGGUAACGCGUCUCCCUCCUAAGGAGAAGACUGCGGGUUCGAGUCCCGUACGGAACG

variants of: B1; experiment: yeast fitness relative to wild type (ratio to wild type); higher = fitter; tRNA-Arg(CCU), competitive growth, 37 C, YPD
Fewer inactive variants are shown than the library holds.
QUANTITY MEASURED: yeast fitness

* GUUCGGUUGGCAUAAUGGUAACGCGUCUCCUUCCUAAGGAGAAGACUGGGGGUUCGAGUCCCGUACGGAACG [C5G G12A C31U C49G] | ≤ 0.5
* GUUCCGUUGGCCUAUUGGUAACGAGUCUCCCUCCUAAGGAGAAGACUGCGGGUUCGAGUCCCGUACGGAACG [G12C A15U C24A] | 0.528
* GUUCCGUUGCCGUAAUGGUAACGCGUCUCCCUACUAAGGUGAAGACUGCGGGUACGAGUCCCGUACGGAACG [G10C C33A A40U U54A] | ≤ 0.5
* GUUCCGUUGGCGUAAUGGUAACGCGUCUCCCUCCUAAGGCGUCGACUACGGGUUCGAGUCCCGUACGGAACG [A40C A42U A43C G48A] | 0.55
* GUUCCGUUGGCGUUAUGGUAACGCGUCUCCCUCCUAAGGAGAAGACUGAGGGUUCGAGUCCCGUACGAAACG [A14U C49A G68A] | ≤ 0.5
* GUUCCGUUGGCGUAAUGGUAACGCGACUCCCUCCUAAGGCGAAGACUGCGGGUUCGAGUCCCGGACGGAACG [U26A A40C U64G] | 0.538
* GUUCCGUUGGCGUAAUGGUAACGCGUCUUCCUCCAAAGGAGAAGACUGCGGGUUCGAGUCCCGUACGGACCG [C29U U35A A70C] | ≤ 0.5
* GUUCCGUUGGCGUUAUGGUAACGCGUCUCCAUCCUAAGGAGAAGAUUAUGGGUUCGAGUCCCGUACGGAACG [A14U C31A C46U G48A C49U] | ≤ 0.5
* GCUUCGUUGGCGUAAUGGUAACGCGUCUCCCUCAUAAGGAGAAGACUGCGGGUUCGAAUCCCGUACGGAACG [U2C C4U C34A G58A] | ≤ 0.5
* GUUCCGUUGGCGUAAUGGUAACGCAUCCCCCUCCUAAGGAGAAGACUGCGGGUUCGAGUCCCGUACGGAACG [G25A U28C] | 0.891
* GAUCCGUUGGCGUAAUGGUAACGCGUCCCCCUCCUAAGGACAAGACUGCGGGUUCGAGUCCCGUAAGGAACG [U2A U28C G41C C66A] | ≤ 0.5
* GUUCCGUUGGCGUAAUGGUAACGCGUCUCCCUCCUAAGGAAAAGACUGCGGGUUAGAGUCCCGUACGGAACG [G41A C55A] | 0.661
* GUUCUGUUGGCGUAAUGGUAACGCGUCUCCCUCGUAAGGAGAAGACUGCGGGUUCGAGUCCCGAACGGAACG [C5U C34G U64A] | ≤ 0.5
* GUUCGGUUGGCGUAAUGGUAACGCGUCUCCCUCCUAAGGAGAAGACUGCGAGUUCGAGUCCCGUACGCAACG [C5G G51A G68C] | ≤ 0.5
* GUUCCGUUGGCGUAAUGGUAACGCGUCUCCCUCCCAAGGAGAAGACUGCGGGUUCGAGUCCCGUACGGAACG [U35C] | 0.817
* GUUCCCUUGGCGUAAUGGUAACGCGUCCCCCUCCUCAGGAGAAGACUGCGAGUUCGAGUCCCGUAAGGAACG [G6C U28C A36C G51A C66A] | ≤ 0.5
* GUUCCGUUGGCGUAAUGGUAACGCGUCUCCCUCGUAAGGAGAUGACUCCGGGUUCGAGUCCCGUACGGAACG [C34G A43U G48C] | ≤ 0.5
* GUUGCGUUGGCGUAAUGGGAACGCGUCUCCCUCCUAAGGAGAUGACUGCGGGUUCGAGUCCCGUACGGAACG [C4G U19G A43U] | ≤ 0.5
* GUUCCGUGGGCGUAAUGGUAACGCGUCUCUGUCCUAAGGAGAAGACUGCGGGUUCGAGUCCCGUAGGGAACG [U8G C30U C31G C66G] | ≤ 0.5
* GUUCCGUUGGCGUAAUGGUAACCCGUCUGCCUCCUAAGGAGAAGACUGCGGGUUCGAGUCCCGUACUGCACG [G23C C29G G67U A69C] | ≤ 0.5
* GUUCCGUUAGGGUAAUGGUAAUGCGUCUCCCUCCUAAGGGGGAGACUGCGGGUUCGAGUCCCGUACGGAACG [G9A C11G C22U A40G A42G] | ≤ 0.5
* GUUCCGUUGGCGUAAUGGAAGCGCGUCUCCCUCCUAAGGAGAAGACUGCGGGUUCGAGUCCCGUACGGAACG [U19A A21G] | 0.987
